# System: MOLM-13 cells
# protocol details: CellTiter-Blue cell viability, MOLM-13
# Format: cell-based
# measurement parameters: Homo sapiens, 72 hrs exposure
experimental readout: IC50

The following compounds have reported results that may help.
smiles notation: COc1ccc(NS(=O)(=O)c2c(F)c(F)c(F)c(F)c2OCC(C)(C)C)cc1F
IC50: > 10000 nM

smiles notation: CN(C)S(=O)(=O)c1c(F)c(F)c(F)c(F)c1OCc1ccc(C(N)=O)cc1
IC50: 1000 to 10000 nM

smiles notation: COC(=O)c1c(F)c(F)c(F)c(F)c1S(=O)(=O)N(C)C
IC50: 1000 to 10000 nM

smiles notation: COc1ccc(NS(=O)(=O)c2c(F)c(F)c(F)c(F)c2OCCF)cc1F
IC50: 1000 to 10000 nM

smiles notation: CCOc1c(F)c(F)c(F)c(F)c1S(=O)(=O)N(C)C
IC50: > 10000 nM

smiles notation: COc1ccc(NS(=O)(=O)c2c(F)c(F)c(F)c(F)c2OC)cc1F
IC50: 100 to 1000 nM

smiles notation: COc1ccc(NS(=O)(=O)c2c(F)c(F)c(F)c(F)c2OCC(F)F)cc1F
IC50: 100 to 1000 nM

smiles notation: COc1ccc(NS(=O)(=O)c2c(F)c(F)c(F)c(F)c2Oc2ccccc2)cc1F
IC50: 1000 to 10000 nM

**Query** Quick one: IC50 of CN(C)S(=O)(=O)c1c(F)c(F)c(F)c(F)c1OCc1ccccc1 ?
**Result** 1000 to 10000 nM

**Query** For the compound CN(C)S(=O)(=O)c1c(F)c(F)c(F)c(F)c1NCC(F)F , what IC50 is on record?
**Result** 1000 to 10000 nM

**Query** Recorded IC50 for COc1ccc(NS(=O)(=O)c2c(F)c(F)c(F)c(F)c2OC(F)(F)F)cc1F , please?
**Result** ≤ 100 nM

----------
# Tested on: MOLM-13 cells
# protocol details: CellTiter-Blue cell viability, MOLM-13
# Type: cell-based
# measurement parameters: Homo sapiens, 72 hrs exposure
Item-by-item account of IC50

Some entries whose results are on file:
smiles notation: COc1ccc(NS(=O)(=O)c2c(F)c(F)c(F)c(F)c2OC(C)C)cc1F
target of assay: MOLM-13 cells
IC50: 0.1 to 1 µM
//
smiles notation: CN(C)S(=O)(=O)c1c(F)c(F)c(F)c(F)c1OCc1ccc(F)cc1F
target of assay: MOLM-13 cells
IC50: 1 to 10 µM
//
smiles notation: COc1ccc(NS(=O)(=O)c2c(F)c(F)c(F)c(F)c2OCF)cc1F
target of assay: MOLM-13 cells
IC50: ≤ 0.1 µM

**Query** Recorded IC50 for CN(C)S(=O)(=O)c1c(F)c(F)c(F)c(F)c1F with MOLM-13 cells, please?
**Result** 1 to 10 µM

**Query** MOLM-13 cells / IC50 / CN(C)C(=O)c1c(F)c(F)c(F)c(F)c1S(=O)(=O)N(C)C : value?
**Result** 1 to 10 µM

**Query** Could you share what IC50 was measured for CC(C)COC(=O)c1c(F)c(F)c(F)c(F)c1S(=O)(=O)N(C)C , tested on MOLM-13 cells?
**Result** 1 to 10 µM

**Query** Find IC50 (MOLM-13 cells) for the entry CCOc1c(F)c(F)c(F)c(F)c1S(=O)(=O)Nc1ccc(OC)c(F)c1
**Result** ≤ 0.1 µM

**Query** Observed IC50 on MOLM-13 cells for CN(C)S(=O)(=O)c1c(F)c(F)c(F)c(F)c1OC(F)F , please.
**Result** > 10 µM

Origin of the recorded values: patent US12559454B2
